target: Alpha-2C adrenergic receptor (Homo sapiens) (UniProt P18825)
Sequence (P18825 whole entry, looked up): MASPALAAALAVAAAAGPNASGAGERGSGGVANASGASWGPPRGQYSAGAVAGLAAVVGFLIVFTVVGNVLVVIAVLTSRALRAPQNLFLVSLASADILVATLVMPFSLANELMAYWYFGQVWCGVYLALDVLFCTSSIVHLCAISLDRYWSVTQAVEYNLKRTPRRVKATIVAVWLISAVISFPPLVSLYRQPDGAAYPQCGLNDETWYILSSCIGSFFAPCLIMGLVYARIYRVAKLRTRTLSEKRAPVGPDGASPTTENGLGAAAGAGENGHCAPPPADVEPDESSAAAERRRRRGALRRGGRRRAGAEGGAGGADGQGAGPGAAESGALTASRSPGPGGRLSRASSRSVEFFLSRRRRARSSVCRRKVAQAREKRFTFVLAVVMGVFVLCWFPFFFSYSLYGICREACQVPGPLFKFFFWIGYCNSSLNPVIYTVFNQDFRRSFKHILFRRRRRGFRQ
test_name: compounds altering alpha2C-coupled GIRK flux – cell-based, HEK293 alpha2C/GIRK1/2, thallium flux, primary screen (AID 624);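 further: slope of fluorescence ratio to pre-addition baseline per second over 15 to 24 s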
experimental_context: thallium flux BTC fluorescence, at 10 µM, actives lie on both sides
Where a SMILES comes first, the peptide text is derived from it. [ ]: non-standard residue; d: D form. The star is where a group is joined. ξ: configuration not given here. Cbz = O=C(OCc1ccccc1)*; Boc = CC(C)(C)OC(=O)*; ξK = NCCCCC(N)C(=O)O
Could you please mark YES for values of slope below 0.005 and NO for values at or above it?

Prompt: # check: slope < 0.005 for CCS(=O)(=O)N1CCCC(C(=O)NCCc2ccc(OC)c(OC)c2)C1 (stereo not given)
Completion: NO

Prompt: # check: slope < 0.005 for COc1ccc(NC(=O)CSc2nnc(Cc3cccn3C)n2-c2ccc(F)cc2)cc1OC
Completion: NO

Prompt: # check: slope < 0.005 for CCOC(=O)N1CCN(C(=O)CN2C(=O)COc3ccc(C)cc32)CC1
Completion: YES

Prompt: # check: slope < 0.005 for Cc1cc(NC(=O)COc2cccc(Oc3ccccc3)c2)no1
Completion: YES

Prompt: # check: slope < 0.005 for Cn1c(=O)c2c(nc3sccn32)n(C)c1=O
Completion: NO

Prompt: # check: slope < 0.005 for COc1cccc(/C=N/n2c(-c3ccco3)nc3ccccc3c2=O)c1
Completion: NO

Prompt: # check: slope < 0.005 for O=C(CN1CCOCC1)N1CCCc2c1c(=O)oc1ccc(OCc3ccccc3)cc21
Completion: YES

Prompt: # check: slope < 0.005 for Cc1cnc(C(=O)OCC(=O)Nc2ccc(Oc3ccccc3)cc2)cn1
Completion: YES

Prompt: # check: slope < 0.005 for CC(C)Oc1ccc(N2CC(C(=O)Nc3ccccc3F)CC2=O)cc1 (stereo not given)
Completion: YES

Prompt: # check: slope < 0.005 for Clc1ss/c(=N\c2ccccn2)c1Cl
Completion: YES

Prompt: # check: slope < 0.005 for COc1cccc(C2=NOC(C(=O)N3CCc4ccccc4C3)C2)c1 (stereo not given)
Completion: NO

Prompt: # check: slope < 0.005 for CCCCNC(=O)c1nc2ncc(Br)cn2n1
Completion: NO

Prompt: # check: slope < 0.005 for COC(=O)C(CCCCNC(=O)OCc1ccccc1)NC(=O)CN (stereo not given) (H-Gly-[ξK](Cbz)-OMe)
Completion: NO

Prompt: # check: slope < 0.005 for Cc1cc2cc(CN(CC3CCCO3)C(=O)c3cnccn3)c(=O)[nH]c2cc1C (stereo not given)
Completion: YES

Prompt: # check: slope < 0.005 for O=S(=O)(c1ccc(Oc2ccc(-c3nnco3)cc2)nc1)N1CCC(Cc2ccccc2)CC1
Completion: NO

Prompt: # check: slope < 0.005 for NC(=O)CSc1cn(CCNC(=O)c2cccs2)c2ccccc12
Completion: NO

Prompt: # check: slope < 0.005 for Cc1ccc(O)c(-c2cc3ccccc3[nH]2)c1
Completion: NO

Prompt: # check: slope < 0.005 for O=C(Nc1ccc(N2CCOCC2)cc1)C1CC1
Completion: NO

Prompt: # check: slope < 0.005 for Clc1ccc2nc(N3CCCCC3)[nH]c2c1
Completion: NO

Prompt: # check: slope < 0.005 for CC(C)CNC(=O)c1ccccc1NC(=O)c1ccc(CN2CCOCC2)cc1
Completion: NO

Prompt: # check: slope < 0.005 for O=C(Nc1cnccn1)c1cccs1
Completion: NO

Prompt: # check: slope < 0.005 for CC(C)OC(=O)CSc1nnc(-c2ccc(O)cc2)n1Cc1ccccc1
Completion: NO

Prompt: # check: slope < 0.005 for Cc1ccc(NC(=O)c2ccccc2F)nc1
Completion: NO

Prompt: # check: slope < 0.005 for Cc1oc2cc3c(C(=O)OCCN(C)C)c(C)oc3cc2c1C(=O)OCCN(C)C
Completion: YES

Prompt: # check: slope < 0.005 for O=S(=O)(Cc1ccccc1)N1CCCCCC1
Completion: NO

Prompt: # check: slope < 0.005 for CCC(C)NC(=O)c1ccccc1NC(=O)C(C)N(c1ccccc1)S(C)(=O)=O (stereo not given)
Completion: NO

Prompt: # check: slope < 0.005 for Cc1cccc(N2CCN(C(=O)CCn3c(=S)[nH]c4cc5c(cc4c3=O)OCO5)CC2C)c1 (stereo not given)
Completion: NO

Prompt: # check: slope < 0.005 for Cc1ccc(-n2nnnc2SCC(=O)c2cc(C)n(CC3CCCO3)c2C)cc1 (stereo not given)
Completion: NO

Prompt: # check: slope < 0.005 for CCCCOc1ccc(C(=O)N2CCC(C)CC2)cc1
Completion: YES

Prompt: # check: slope < 0.005 for Cc1nnc(C)c2c(C)n(Cc3ccc4c(c3)OCO4)c(C)c12
Completion: YES

Prompt: # check: slope < 0.005 for CC(C)CC(NC(=O)OC(C)(C)C)C(=O)NC(C(=O)N1CCCC1C(N)=O)C(C)C (stereo not drawn) (Boc-Leu-Val-Pro-NH2; configuration not given here)
Completion: NO

Prompt: # check: slope < 0.005 for CCc1nnc(NC(=O)CN2CCN(c3ccccc3OC)CC2)s1
Completion: NO

Prompt: # check: slope < 0.005 for O=C(CSc1nc2ccccc2s1)N1CCOCC1
Completion: YES

Prompt: # check: slope < 0.005 for CC(=O)Nc1ccc(S(=O)(=O)Nc2nc3c(s2)CCCC3)cc1
Completion: NO

Prompt: # check: slope < 0.005 for Cc1onc(-c2c(Cl)cccc2Cl)c1C(=O)N1CCc2ccccc21
Completion: NO

Prompt: # check: slope < 0.005 for CCOc1ccc2nc(NC(=O)CSc3nnnn3C3CCCCC3)sc2c1
Completion: YES

Prompt: # check: slope < 0.005 for O=C(Nc1ccncc1)C1CCCN(S(=O)(=O)c2cccc3cccnc23)C1 (stereo not given)
Completion: NO

Prompt: # check: slope < 0.005 for O=C(CSc1nnc(-c2c[nH]c3ccccc23)o1)N(Cc1ccccc1)c1ccc(F)cc1
Completion: NO

Prompt: # check: slope < 0.005 for CCc1nc(C)ccc1OCC(=O)O
Completion: NO

Prompt: # check: slope < 0.005 for O=C(CN1CCN(c2ccccn2)CC1)N1c2ccccc2CCc2ccccc21
Completion: YES

Prompt: # check: slope < 0.005 for CN(Cc1ccccc1)C(=O)c1ccc2c(c1)OCO2
Completion: YES

Prompt: # check: slope < 0.005 for CCOC(=O)C(NCc1ccccc1OC)(NC(C)=O)C(F)(F)F (stereo not given)
Completion: NO

Prompt: # check: slope < 0.005 for CC(=O)c1ccccc1NS(=O)(=O)c1c(C)nn(-c2ccccc2)c1C
Completion: YES
